- assay system: Orexin/Hypocretin receptor type 1 (Homo sapiens)
- measurement description: blockers of orexin-A calcium signaling via HCRTR1 – fluorescence, CHO/OX1R cells, Fluo-8 calcium, primary screen (AID 434989);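 also: 0% = orexin A challenge wells and 100% = SB-334867-A antagonist wells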
- test parameters: Fluo-8 calcium fluorescence, at 5 µM
The campaign covered roughly 330,000 compounds. About 1,400 (0.42%) were called active.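 The calls were made as follows: active = inhibition above its plate's threshold, mean inhibition of all tested compounds on the plate plus 3 SD (cut at about 37% in these data); inactive = the rest.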 The full list was thinned out, with actives kept by preference.
Response enum: class 1 (active), class 0 (inactive)

Ask | Record lookup: outcome of this test for O=C(N/N=C/c1c(O)n(C2CC2)c(=S)[nH]c1=O)c1ccccc1 ?
Reply | class 0

Ask | Record lookup: outcome of this test for CC1=C(C(=O)Nc2ccccc2)SCCO1 ?
Reply | class 0

Ask | Record lookup: outcome of this test for Cc1ccc(C(C)C)c(OCC(=O)N2CCN(CC(=O)N3CCOCC3)CC2)c1 ?
Reply | class 0

Ask | Record lookup: outcome of this test for Cc1ccc(Cn2nnnc2CN2CCC(n3nnc4ccccc43)CC2)cc1 ?
Reply | class 0

Ask | Record lookup: outcome of this test for COc1cc2nc(N3CCN(C(=O)[C@@H]4CCCO4)CC3)nc(N)c2cc1OC ?
Reply | class 0

Ask | Record lookup: outcome of this test for O=C1C2(Cl)C3(Cl)C4(Cl)C(Cl)(Cl)C5(Cl)C3(Cl)C1(Cl)C5(Cl)C24Cl (stereo not drawn) ?
Reply | class 1

Ask | Record lookup: outcome of this test for CC(C(=O)Nc1ccc(Cl)cc1Cl)N1CC=C(c2ccccc2)CC1 (stereo not drawn) ?
Reply | class 1

Ask | Record lookup: outcome of this test for Nc1ccc([N+](=O)[O-])cc1 ?
Reply | class 0
